biological target: T1, human C-KIT-Fc (human, UniProt P10721 26-524); assay: direct ELISA at 1 µg/ml
T1 construct: also called biotinylated human C-KIT-Fc; not shown: Fc part not described
MEASUREMENT NAME: OD450 nm

BINDER | RECORDED RESULT
MH5, human IgG1 (antibody, V domains shown, IgG1; also called C-KIT-MH5; C-KIT-MHS) VH: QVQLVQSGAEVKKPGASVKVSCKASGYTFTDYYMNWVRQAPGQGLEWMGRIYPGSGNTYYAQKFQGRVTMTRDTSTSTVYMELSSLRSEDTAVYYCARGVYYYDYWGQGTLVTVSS VL: DIQMTQSPSSLSASVGDRVTITCRASQGIRTNLAWFQQKPGKAPKSLIYSASSLQSGVPSRFSGSGSGTDFTLTISSLQPEDFATYYCQQYANYPRTFGGGTKVEIK | > 1.8 OD450 nm
E-C7 (antibody, IgG1, V domains shown, IgG1; also called C-KIT-E-C7) VH: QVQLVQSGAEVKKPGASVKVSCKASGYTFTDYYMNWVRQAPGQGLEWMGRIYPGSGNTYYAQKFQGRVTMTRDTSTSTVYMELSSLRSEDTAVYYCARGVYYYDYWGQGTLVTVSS VL: DIQMTQSPSSLSASVGDRVTITCRASQGIRTNLAWFQQKPGKAPKSLIYSASSLQSGVPSRFSGSGSGTDFTLTISSLQPEDFATYYCQQYNSYPRTFGGGTKVEIK | > 1.8 OD450 nm
MH1, human IgG1 (antibody, V domains shown, IgG1; also called IgG1-MH1) VH: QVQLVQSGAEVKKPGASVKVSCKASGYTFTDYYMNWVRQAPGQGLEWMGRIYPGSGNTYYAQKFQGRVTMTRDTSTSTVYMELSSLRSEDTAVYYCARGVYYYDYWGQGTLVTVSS VL: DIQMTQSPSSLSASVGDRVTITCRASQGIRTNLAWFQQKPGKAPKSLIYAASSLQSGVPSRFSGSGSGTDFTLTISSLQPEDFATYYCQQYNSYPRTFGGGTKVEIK | > 1.8 OD450 nm
